test: GLP Aggregation Assay (time to onset of aggregation, turbidity at 350 nm); assay type: physicochemical; conditions: 0.3 mg/mL in 10 mM citrate, 10 mM phosphate, 150 mM NaCl, pH 7.4 to 7.5, 37° C., stirred, turbidity at 350 nm
ATTRIBUTE MEASURED: Aggregation Time

The cases that follow already have their Aggregation Time on record.
Lab note: Val^8-Glu^36-GLP-1(7-37)OH (HVEGTFTSDVSSYLEGQAAKEFIAWLVKGEG) gave Aggregation Time of >45 h

Lab note: Ala^8-His^26-GLP-1(7-37)OH (HAEGTFTSDVSSYLEGQAAHEFIAWLVKGRG) gave Aggregation Time of >24 h

Lab note: Val^8-Glu^33-GLP-1(7-37)OH (HVEGTFTSDVSSYLEGQAAKEFIAWLEKGRG) gave Aggregation Time of >70 h

***
Lab note: Val^8-Glu^22-Ala^27-GLP-1(7-37)OH (HVEGTFTSDVSSYLEEQAAKAFIAWLVKGRH) gave Aggregation Time of >45 h
